Record form. Attribute: composite z-score. Fill in for each entry.
target: Dihydroorotate dehydrogenase (quinone), mitochondrial (Plasmodium falciparum (isolate 3D7)) (UniProt Q08210); assay: PfDHODH enzyme inhibitors, primary screen, biochemical, C-terminal His tag, absorbance 600 nm (AID 1175); conditions: DCIP absorbance 600 nm, higher = more signal, called active from +8 up or from −8 down;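 note: recombinant parasite enzyme with a five histidine tag at its C terminus; test concentration not given here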
Sequence (Q08210 whole entry, looked up): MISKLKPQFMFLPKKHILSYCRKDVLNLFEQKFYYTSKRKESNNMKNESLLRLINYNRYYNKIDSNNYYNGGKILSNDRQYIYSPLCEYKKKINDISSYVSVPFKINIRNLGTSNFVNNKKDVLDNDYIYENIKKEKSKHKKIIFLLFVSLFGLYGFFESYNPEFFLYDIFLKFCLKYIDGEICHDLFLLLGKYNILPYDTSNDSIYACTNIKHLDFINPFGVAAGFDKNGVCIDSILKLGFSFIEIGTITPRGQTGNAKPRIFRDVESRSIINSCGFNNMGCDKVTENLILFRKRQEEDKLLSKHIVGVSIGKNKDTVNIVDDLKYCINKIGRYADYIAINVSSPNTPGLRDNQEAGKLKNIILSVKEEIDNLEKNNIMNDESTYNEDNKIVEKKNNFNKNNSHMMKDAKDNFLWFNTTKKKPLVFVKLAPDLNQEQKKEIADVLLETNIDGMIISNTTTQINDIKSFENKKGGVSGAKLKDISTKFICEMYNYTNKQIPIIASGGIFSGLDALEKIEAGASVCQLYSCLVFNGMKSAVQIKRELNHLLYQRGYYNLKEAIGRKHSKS
Calls of active or inactive are those of the source.

[Q] Which composite z-score is listed for `C#CCN(CC1=CCCCC1)[C@H](c1ccccc1Br)[C@@H](O)Cc1ccccc1` ?
[A] 0.0019 (inactive)

[Q] Can you handle `COC(=O)[C@@]1(Cc2ccc(OC)cc2)[C@H]2c3cc(C(=O)N4CCCC4)n(Cc4ccsc4Br)c3C[C@H]2CN1C(=O)c1ccccc1` next?
[A] 0.276 (inactive)

[Q] Also check `CCCCC(=C=CC[C@@H](O)c1ccccc1OCCO)CCO`
[A] -0.782 (inactive)

[Q] Query `COc1ccc([C@H]2C[C@H]3C(Br)=C[C@@H]2C(=O)[C@]32CO2)cc1` next
[A] 1.03 (inactive)

[Q] Entry to check: `C=CCOC(=O)[C@H]1[C@@H]2C(=O)O[C@@H](c3ccccc3)[C@@H](c3ccccc3)N2[C@@H](c2ccc(OCCOC(=O)[C@H]3C[C@H]4C(=O)N[C@@H](CC(C)C)C(=O)N4[C@H]3c3ccc(O)cc3)cc2)[C@]12C(=O)Nc1ccc(I)cc12`
[A] -1.72 (inactive)

[Q] And the next one, `CC(C)(C)OC(=O)CC[C@@]12N=C(c3ccc(OCCCO)cc3)O[C@@H]1c1ccccc1N(CCS(=O)(=O)c1ccccc1)C2=O` ?
[A] -0.298 (inactive)

[Q] Query `C=CCNC(=O)[C@@H]1[C@H]2C(=O)O[C@H](c3ccccc3)[C@H](c3ccccc3)N2[C@H](c2ccccc2OCCO)[C@@]12C(=O)N(C(=O)OCCOC)c1ccc(C#CCNC(N)=O)cc12` next
[A] 0.0199 (inactive)

[Q] `C=CCN1C(=O)[C@@]2(O[C@@H](CCO)[C@H]([Si](C)(C)c3ccc(OC)cc3)[C@H]2C)c2cc(NC(=O)c3ccc(OC)cc3)ccc21` , same question.
[A] -1.21 (inactive)

[Q] Another: CCCCN1CC=CC23O[C@@H]4/C=C\CCC(C)OC(=O)C4[C@H]2C(=O)N(CCCCCO)[C@@H]3C1=O (some centres undefined)
[A] 0.18 (inactive)

[Q] Then `CCCCc1cn(C[C@H](Cc2ccccc2)NC(=O)N[C@H](CO)CCc2oc(C(C)=O)c(C(=O)OC)c2C(=O)OC)nn1` ?
[A] -2.83 (inactive)

[Q] Let us now turn to `CN(C)CCCCCCNC(=O)[C@@H]1C[C@@H]2C(=O)N[C@@H](CCCCN)C(=O)N2[C@@H]1c1cccc(OCCO)c1`
[A] -1.12 (inactive)

[Q] Proceed to CC(C)C(CO)N1C(=O)[C@@H]2[C@H]3C(=O)OCC=C[C@H]3OC23C=CCN(C(C)C)C(=O)[C@@H]13 (some centres undefined)
[A] 0.0658 (inactive)

[Q] Next compound: `CCOC(=O)C[C@H]1[C@H](OC(=O)Cc2ccc3c(c2)OCO3)[C@@H](NC(=O)c2ccc3ccccc3c2)c2cc(OCCCO)ccc2N1C(=O)c1ccccc1`
[A] -0.777 (inactive)

[Q] Same question for `CCOC(=O)C[C@H]1[C@H](OC(=O)c2cc3ccccc3oc2=O)[C@@H](NC(=O)C2CCCCC2)c2cc(OCCCO)ccc2N1C(=O)c1ccccc1` please.
[A] -2.85 (inactive)

[Q] Another compound to check: `CC(C)(C)OC(=O)CC[C@@]1(C(=O)NCCN2CCOCC2)N=C(c2ccc(OCCCO)cc2)O[C@@H]1c1ccccc1N=[N+]=[N-]`
[A] -0.462 (inactive)

[Q] Here is the next compound: CCC(CC)C(O)C1C=CC2C(=O)N(C)C(=O)C2N1Nc1ccccc1 (centres undefined)
[A] -0.546 (inactive)

[Q] Next compound up: `C=CCN1C(=O)[C@]2(O[C@H](CCO)[C@@H]([Si](C)(C)c3ccc(OC)cc3)[C@@H]2C)c2cc(N3C(=O)c4cccc5cccc3c45)ccc21`
[A] 1.72 (inactive)

[Q] Moving on to the next compound: `O=C(NCc1ccccc1)[C@@H]1c2ccccc2C(=O)N(CC23CC4CC(CC(C4)C2)C3)[C@H]1c1ccc(CO)cc1`
[A] -0.139 (inactive)

[Q] // repeat for `[N-]=[N+]=NCc1ccccc1[C@H]1OC(c2ccc(OCCCO)cc2)=N[C@@]1(Cc1ccccc1)C(=O)NCc1ccccc1` and report
[A] -0.407 (inactive)

[Q] Also, CCN(CC)c1ccc(N2CC=CC34O[C@@H]5/C=C\CCCOC(=O)C5[C@H]3C(=O)N(CCO)[C@@H]4C2=O)cc1 (some centres undefined) please.
[A] 0.174 (inactive)

[Q] Also need `COc1ccc(C(=O)Nc2ccc(CN3C(=O)[C@@]4(O[C@@H](CCO)[C@H]([Si](C)(C)c5ccc(OC)cc5)[C@H]4C)c4ccccc43)cc2)cc1` , thanks.
[A] -0.851 (inactive)

[Q] # repeat for `Cc1ccc(S[C@]2(C(=O)NCCN3CCOCC3)CC(=O)N(Cc3ccccc3)[C@@H]2c2ccc(CO)cc2I)cc1`
[A] -4.58 (inactive)

[Q] Then what about the compound `COc1ccc(C(=O)Nc2ccc(CN3C(=O)[C@@]4(O[C@@H](CCn5cc([C@H](O)c6ccccc6)nn5)[C@H]([Si](C)(C)c5ccc(OC)cc5)[C@H]4C)c4ccccc43)cc2)cc1` ?
[A] -0.441 (inactive)

[Q] And then COc1ccc(C(O)C2C=CC3C(=O)N(c4ccccc4)C(=O)C3N2Nc2ccccc2F)cc1OCc1ccccc1 (centres undefined) , what is it?
[A] -0.318 (inactive)

[Q] // repeat for `COC(=O)[C@@]1(Cc2ccccc2)[C@H]2c3cc(C(=O)N4CCCC4)n(Cc4cccc5ccccc45)c3C[C@H]2CN1C(=O)c1ccccc1` and report
[A] -0.323 (inactive)

[Q] Also need `[N-]=[N+]=Nc1ccccc1C[C@@]1(C(=O)NCCN2CCOCC2)N=C(c2ccc(OCCCO)cc2)O[C@@H]1c1ccccc1` , thanks.
[A] 0.842 (inactive)

[Q] What do you get for `C=C(CCCC)C(=O)CC[C@H](OC(=O)c1cccnc1)c1ccccc1OCCO` ?
[A] -0.363 (inactive)

[Q] Try this compound next: `O=C1c2ccccc2[C@](Cc2ccccc2I)(C(=O)NC2CC2)[C@H](c2ccc(CO)cc2)N1C1CCCCC1`
[A] 1.06 (inactive)

[Q] Query `C=CCOC(=O)[C@H]1[C@@H]2C(=O)O[C@@H](c3ccccc3)[C@@H](c3ccccc3)N2[C@@H](c2ccc(OCCOC(=O)[C@@H]3C[C@@H]4C(=O)N[C@@H](CCCCN(C)C)C(=O)N4[C@@H]3c3ccc(O)cc3)cc2)[C@]12C(=O)Nc1ccc(I)cc12` next
[A] -1.71 (inactive)

====

Would you kindly list composite z-score for each of these compounds?
target: Neurogenic locus notch homolog protein 2 (Homo sapiens) (UniProt Q04721); experiment: Notch2 binders on small-molecule microarrays, primary screen, biochemical, small-molecule microarray, 635 nm fluorescence, stem cell growth factors (AID 1073); details: Notch2 binding, higher = more signal
Sequence (Q04721 whole entry, looked up): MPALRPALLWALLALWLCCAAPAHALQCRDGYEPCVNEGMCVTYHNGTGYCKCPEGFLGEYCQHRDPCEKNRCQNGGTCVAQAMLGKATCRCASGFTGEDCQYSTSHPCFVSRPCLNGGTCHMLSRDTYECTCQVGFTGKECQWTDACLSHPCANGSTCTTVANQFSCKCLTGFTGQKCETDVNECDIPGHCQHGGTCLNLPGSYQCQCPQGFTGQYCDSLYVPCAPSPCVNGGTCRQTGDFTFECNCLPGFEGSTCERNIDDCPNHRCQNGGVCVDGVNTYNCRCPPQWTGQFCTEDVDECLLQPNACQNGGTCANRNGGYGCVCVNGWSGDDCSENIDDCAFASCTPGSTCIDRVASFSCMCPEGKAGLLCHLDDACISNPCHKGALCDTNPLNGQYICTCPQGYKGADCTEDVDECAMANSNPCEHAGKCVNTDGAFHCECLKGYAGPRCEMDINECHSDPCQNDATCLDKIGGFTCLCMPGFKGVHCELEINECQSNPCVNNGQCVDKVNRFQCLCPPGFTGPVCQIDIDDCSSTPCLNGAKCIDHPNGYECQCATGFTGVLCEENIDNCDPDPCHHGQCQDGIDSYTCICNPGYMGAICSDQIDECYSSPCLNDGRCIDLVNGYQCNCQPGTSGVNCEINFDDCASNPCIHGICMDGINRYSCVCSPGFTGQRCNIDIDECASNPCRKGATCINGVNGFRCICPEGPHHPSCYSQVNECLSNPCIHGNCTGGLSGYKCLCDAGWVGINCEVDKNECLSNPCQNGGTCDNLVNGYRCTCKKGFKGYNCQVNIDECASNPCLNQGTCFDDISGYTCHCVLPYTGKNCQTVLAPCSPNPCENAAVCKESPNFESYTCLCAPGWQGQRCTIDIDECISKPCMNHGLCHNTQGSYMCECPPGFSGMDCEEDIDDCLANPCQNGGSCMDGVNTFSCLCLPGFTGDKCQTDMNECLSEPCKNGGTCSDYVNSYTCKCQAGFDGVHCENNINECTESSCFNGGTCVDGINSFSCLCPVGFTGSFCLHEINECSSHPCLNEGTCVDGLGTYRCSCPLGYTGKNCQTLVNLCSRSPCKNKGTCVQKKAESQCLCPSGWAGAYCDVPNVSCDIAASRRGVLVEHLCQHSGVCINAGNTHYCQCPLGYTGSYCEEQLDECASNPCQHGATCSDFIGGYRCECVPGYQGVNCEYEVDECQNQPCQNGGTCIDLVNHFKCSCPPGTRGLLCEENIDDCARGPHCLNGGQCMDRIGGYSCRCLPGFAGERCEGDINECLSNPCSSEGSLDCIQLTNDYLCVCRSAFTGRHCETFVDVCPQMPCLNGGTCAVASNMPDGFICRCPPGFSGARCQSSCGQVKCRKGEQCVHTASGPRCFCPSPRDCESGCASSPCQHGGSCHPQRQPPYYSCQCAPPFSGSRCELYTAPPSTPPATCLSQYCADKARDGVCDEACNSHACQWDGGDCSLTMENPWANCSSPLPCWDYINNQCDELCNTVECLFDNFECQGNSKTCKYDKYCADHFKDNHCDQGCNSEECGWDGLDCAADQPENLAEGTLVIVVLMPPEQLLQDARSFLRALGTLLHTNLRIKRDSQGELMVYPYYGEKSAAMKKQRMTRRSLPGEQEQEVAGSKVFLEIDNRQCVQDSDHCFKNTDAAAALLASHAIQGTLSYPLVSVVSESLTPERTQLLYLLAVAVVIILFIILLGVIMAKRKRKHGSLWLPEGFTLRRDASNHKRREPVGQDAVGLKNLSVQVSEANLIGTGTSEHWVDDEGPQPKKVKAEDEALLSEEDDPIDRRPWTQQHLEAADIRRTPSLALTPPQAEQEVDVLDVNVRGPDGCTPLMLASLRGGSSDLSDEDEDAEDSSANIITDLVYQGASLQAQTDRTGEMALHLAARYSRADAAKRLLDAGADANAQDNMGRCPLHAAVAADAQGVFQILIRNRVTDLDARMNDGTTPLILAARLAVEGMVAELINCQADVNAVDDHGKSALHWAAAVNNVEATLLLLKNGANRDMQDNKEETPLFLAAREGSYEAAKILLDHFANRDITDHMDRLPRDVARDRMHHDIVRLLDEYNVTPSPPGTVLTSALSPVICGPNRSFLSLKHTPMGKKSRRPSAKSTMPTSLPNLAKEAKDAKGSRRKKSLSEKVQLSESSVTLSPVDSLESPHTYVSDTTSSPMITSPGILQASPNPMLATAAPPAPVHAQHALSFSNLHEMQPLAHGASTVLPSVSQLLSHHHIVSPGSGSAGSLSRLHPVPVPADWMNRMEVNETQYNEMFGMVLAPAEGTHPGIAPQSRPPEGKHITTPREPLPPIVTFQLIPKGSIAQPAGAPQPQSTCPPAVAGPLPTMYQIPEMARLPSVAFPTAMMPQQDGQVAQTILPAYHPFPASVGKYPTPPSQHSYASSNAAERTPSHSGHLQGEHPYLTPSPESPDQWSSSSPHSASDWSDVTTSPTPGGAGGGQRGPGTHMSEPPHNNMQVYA

[Q] API: value(readout= composite z-score, system= Neurogenic locus notch homolog protein 2 (Homo sapiens) (UniProt Q04721), query= `C[C@]1(C(=O)NC2CC2)c2ccccc2C(=O)N(Cc2cc(C(F)(F)F)cc(C(F)(F)F)c2)[C@H]1c1ccc(CO)cc1` )
[A] 1.26

[Q] Lookup CN1C(=O)C2C=CC(C(O)c3cc(C(F)(F)F)cc(C(F)(F)F)c3)N(N3CCCCC3)C2C1=O (centres undefined)
[A] 1.41

[Q] Same question, CC1(C)[C@@H]2CC(C(O)C3C=CC4C(=O)N(c5ccccc5)C(=O)C4N3Nc3ccccc3)=C[C@H]1C2 (some centres undefined) this time
[A] 1.03

[Q] Queued: CC(CO)N1C(=O)[C@@H]2C3C(=O)OCCC/C=C\[C@H]3OC23C=CCN(c2ccc4ccccc4c2)C(=O)[C@@H]13 (some centres undefined)
[A] -0.874

[Q] `Cc1ccc(S[C@]2(C(=O)NCCN3CCOCC3)CC(=O)N(Cc3ccccc3Cl)[C@@H]2c2ccc(CO)cc2)cc1` , same question.
[A] -0.32

[Q] And then `COCC(=C=CC[C@@H](O)c1ccccc1OCCO)C[C@@H](O)c1cc(Cl)cc(Cl)c1O` , what is it?
[A] 1.09

[Q] Now give it for `CCOC(=O)C[C@H]1[C@H](OC(=O)Cc2ccc3c(c2)OCO3)[C@@H](NC(=O)c2ccc(-c3ccccc3)cc2)c2cc(OCCCO)ccc2N1C(=O)Cc1ccc(OC)cc1` too.
[A] 0.819

[Q] Queued: `CC(C)C[C@@H]1NC(=O)[C@H]2C[C@@H](C(=O)NCCCCCCN(C)C)[C@@H](c3ccc(O)cc3)N2C1=O`
[A] 0.285

[Q] Moving on to the next compound: [N-]=[N+]=NCc1ccccc1C[C@@]1(C(=O)NCC(O)CO)N=C(c2ccc(OCCCO)cc2)O[C@@H]1c1ccccc1N=[N+]=[N-] (some centres undefined)
[A] 0.669

[Q] Follow-up entry: `CC(=O)NCCCC[C@@H]1NC(=O)[C@@H]2C[C@H](C(=O)NCCCCCCNC(=O)CS)[C@H](c3cccc(OCCO)c3)N2C1=O`
[A] 0.149

[Q] Another compound: O=C1C2C=CC(C(O)C3CCCCC3)N(Nc3ccc([N+](=O)[O-])cc3)C2C(=O)N1c1ccccc1 (centres undefined)
[A] -0.795

[Q] Param item: `COCCOC(=O)N1C(=O)[C@@]2(c3cc(C#CC4=CCCCC4)ccc31)[C@H](C(=O)Nc1nc3ccccc3s1)[C@H]1C(=O)O[C@H](c3ccccc3)[C@H](c3ccccc3)N1[C@@H]2c1ccc(OCCO)cc1`
[A] 1.12

[Q] Another: COc1ccc(COC2OC[C@]3(C)[C@H]4C5=C(CN3C(=O)OC(C)(C)C)[C@H](C)C(CO)C(CO)C5CC[C@@H]24)cc1 (some centres undefined)
[A] 1.65

[Q] Okay, and COc1ccc(NN2C(C(O)c3ccc([N+](=O)[O-])cc3)C=CC3C(=O)N(C4CCCCC4)C(=O)C32)cc1 (centres undefined) ?
[A] 0.901

Cited source for all entries: PubChem BioAssay
